- STUDY SYSTEM: human recombinant phosphodiesterase IVa (met-248) (Homo sapiens, UniProt P27815)
- Construct: human recombinant phosphodiesterase IVa (met-248)
- Sequence (P27815 248-886 limits assumed): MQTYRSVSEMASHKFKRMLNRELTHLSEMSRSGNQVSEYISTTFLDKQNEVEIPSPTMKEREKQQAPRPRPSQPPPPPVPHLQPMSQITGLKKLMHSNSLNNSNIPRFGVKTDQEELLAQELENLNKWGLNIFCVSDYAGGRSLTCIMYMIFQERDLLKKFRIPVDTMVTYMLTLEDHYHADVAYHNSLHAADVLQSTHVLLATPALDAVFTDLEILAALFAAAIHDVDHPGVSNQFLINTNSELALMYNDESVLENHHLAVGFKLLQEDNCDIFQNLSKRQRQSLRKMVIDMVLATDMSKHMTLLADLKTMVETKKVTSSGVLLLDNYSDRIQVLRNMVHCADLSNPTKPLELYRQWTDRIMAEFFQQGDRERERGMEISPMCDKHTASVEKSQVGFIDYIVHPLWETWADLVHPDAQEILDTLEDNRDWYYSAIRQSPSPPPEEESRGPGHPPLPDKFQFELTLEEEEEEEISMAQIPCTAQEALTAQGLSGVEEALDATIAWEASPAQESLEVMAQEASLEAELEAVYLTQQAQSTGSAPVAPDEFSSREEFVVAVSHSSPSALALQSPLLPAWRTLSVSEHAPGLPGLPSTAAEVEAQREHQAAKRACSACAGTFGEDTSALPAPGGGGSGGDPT
- ASSAY PROTOCOL: SPA based PDE activity assay
- EXPERIMENTAL SETUP: 100 nM cAMP; purified GST fusion protein of human recombinant PDE IVa (met-248), baculovirus/Sf-9
Lab note: anything with IC50 below 2 nM is marked Y; values at 2 nM or higher are marked N.

{"columns": ["COMPOUND", "ASSIGNED LABEL"],
 "data": [
  ["CC(C)(c1cc(-c2cccc(-c3sc(-c4cccc(S(C)(=O)=O)c4)nc3-c3ccc(S(C)(=O)=O)cc3)c2)c2ncccc2c1)S(C)(=O)=O", "Y"],
  ["Cn1nnc(-c2cc(-c3cccc(-c4cc(C(C)(C)S(C)(=O)=O)cc5cccnc45)c3)c[n+]([O-])c2)n1", "N"],
  ["CC(C)(O)c1nc(-c2cccc(-c3cc(C(C)(C)S(C)(=O)=O)cc4cccnc34)c2)c(-c2ccc(Cl)cc2)s1", "N"],
  ["CC(C)(O)c1nc(-c2cccc(-c3cc(C(C)(C)S(C)(=O)=O)cc4cccnc34)c2)c(-c2ccc(S(C)(=O)=O)cc2)s1", "Y"],
  ["Cc1noc(-c2cc(-c3cccc(-c4cc(C(C)(C)S(C)(=O)=O)cc5cccnc45)c3)c[n+]([O-])c2)n1", "N"],
  ["CC(C)(O)c1nc(-c2ccc(S(C)(=O)=O)cc2)c(-c2cccc(-c3cc(C(=O)NC4CC4)cc4cccnc34)c2)s1", "Y"],
  ["CC(C)(O)c1ccc(-c2nc(-c3ccc(S(C)(=O)=O)cc3)c(-c3cccc(-c4cc(C(C)(C)S(C)(=O)=O)cc5cccnc45)c3)s2)cc1", "Y"],
  ["CC(C)(O)c1cccc(-c2nc(-c3ccc(F)c(Cl)c3)c(-c3cccc(-c4cc(C(C)(C)S(C)(=O)=O)cc5cccnc45)c3)s2)c1", "Y"],
  ["CC(O)(c1ccc(Cl)cc1)c1nc(-c2cccc(-c3cc(C(C)(C)S(C)(=O)=O)cc4cccnc34)c2)c(-c2ccc(S(C)(=O)=O)cc2)s1 (centres unmarked)", "N"],
  ["CC(C)(c1cc(-c2cccc(-c3sc(-c4cccc(Cl)c4)nc3-c3ccc(S(C)(=O)=O)cc3)c2)c2ncccc2c1)S(C)(=O)=O", "Y"],
  ["CC(C)(O)c1cccc(-c2nc(-c3ccc(S(C)(=O)=O)cc3)c(-c3cccc(-c4cc(C(C)(C)S(C)(=O)=O)cc5cccnc45)c3)s2)c1", "Y"]
]}
